Each entry below carries its reported D3 p Ki.
System Name: human dopamine type 3 receptor (hD3) (Homo sapiens (Human), UniProt P35462)
Sequence (P35462 whole entry): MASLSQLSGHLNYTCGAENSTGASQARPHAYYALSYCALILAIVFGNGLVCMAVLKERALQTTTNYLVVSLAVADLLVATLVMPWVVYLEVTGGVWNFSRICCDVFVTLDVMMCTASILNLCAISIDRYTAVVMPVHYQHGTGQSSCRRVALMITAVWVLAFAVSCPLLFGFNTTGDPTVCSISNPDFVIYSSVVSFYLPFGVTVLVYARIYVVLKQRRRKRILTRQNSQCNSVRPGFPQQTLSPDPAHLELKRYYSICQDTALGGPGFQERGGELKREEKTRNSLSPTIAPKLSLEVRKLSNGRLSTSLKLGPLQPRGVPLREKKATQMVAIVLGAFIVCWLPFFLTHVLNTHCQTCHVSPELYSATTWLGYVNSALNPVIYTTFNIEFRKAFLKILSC
Experimental Details: [3H]-Spiperone binding assay at hD3 recombinant receptor (CHO-hD3 membranes)
Assay Context: pKi only estimated to be accurate to about ±0.3-0.5
Write the number on its own, no unit after it.

Observe how each entry below is paired with its result.
- Compound: "Cn1c(SCCCN2CCOC(c3ccc(C(F)(F)F)cc3)C2)nnc1-c1cnccn1 (stereo not shown) [Example 19]"
  Numeric Value: 6.76
- Compound: "Cc1ncoc1-c1nnc(SCCCCN2CCO[C@H](c3ccc(C(F)(F)F)cc3)C2)n1C (single isomer, unassigned) [Example 6]"
  Numeric Value: 7.11
- Compound: "Cn1c(SCCCN2CCOC(c3ccc(C(F)(F)F)cc3)C2)nnc1-c1ccsc1 (stereo not shown) [Example 28]"
  Numeric Value: 6.95

# context switch: different compound, same D3 p Ki
// query Using known records, supply D3 p Ki for Cn1c(SCCCN2CCOC(c3ccc(C(F)(F)F)cc3)C2)nnc1-c1ccc(S(N)(=O)=O)cc1 (stereo not shown) [Example 33]
// result 6.87

Reference for the values: patent US10577361B2
